Reported EC50 values follow for various compounds
Test system: PANC1 cells
Experiment: CellTiter-Glo cell viability assay, PANC1 cells
Assay type: cell-based
Conditions: Homo sapiens, PANC-1, PANC1 cells; Compound I-7 present at 2 μM
The reply should contain only the number, in nM.

Dear colleague, I am looking for the recorded EC50 of the following compound: C[C@@H](Oc1cc(-n2cnc3ccc(CN4CCN(C)CC4)cc32)sc1C(N)=O)c1ccccc1C(F)(F)F
300

One more compound: CC[C@@H]1C(=O)N(C)c2cnc(Nc3ccc(C(=O)NC4CCN(C)CC4)cc3OC)nc2N1C1CCCC1
4.4

---

System: DMS273 cells
Assay: CellTiter-Glo cell viability assay, DMS273 cells
Assay type: cell-based
Conditions: Homo sapiens, DMS-273, DMS273 cells; Compound I-7 not present
Readout Type: pEC50
Would you please state pEC50, meaning minus log10 of the concentration in mol/L, as a bare number?

Some solved entries appear below for comparison.
Query Smiles: C[C@@H](Oc1cc(-n2cnc3ccc(CN4CCN(C)CC4)cc32)sc1C(N)=O)c1ccccc1C(F)(F)F
pEC50: 6.37
//
Query Smiles: CC(=O)O[C@@]12CO[C@@H]1C[C@H](O)[C@@]1(C)C(=O)[C@H](O)C3=C(C)[C@@H](OC(=O)[C@H](O)[C@@H](NC(=O)OC(C)(C)C)c4ccccc4)C[C@@](O)([C@@H](OC(=O)c4ccccc4)[C@H]21)C3(C)C
pEC50: 9.19
//
Query Smiles: CC[C@@H]1C(=O)N(C)c2cnc(Nc3ccc(C(=O)NC4CCN(C)CC4)cc3OC)nc2N1C1CCCC1
pEC50: 8.21

Dear colleague, I am looking for the recorded pEC50 of the following compound: CC(=O)O[C@H]1C(=O)[C@@]2(C)[C@H]([C@H](OC(=O)c3ccccc3)[C@]3(O)C[C@H](OC(=O)[C@H](O)[C@@H](NC(=O)c4ccccc4)c4ccccc4)C(C)=C1C3(C)C)[C@]1(OC(C)=O)CO[C@@H]1C[C@@H]2O
8.57

---

Test system: DMS273 cells
Experiment: CellTiter-Glo cell viability assay, DMS273 cells
Assay type: cell-based
Conditions: Homo sapiens, DMS-273, DMS273 cells; Compound I-7 present at 4 μM
Readout Type: pEC50
Would you please state pEC50, meaning minus log10 of the concentration in mol/L, as a bare number?

Some solved entries appear below for comparison.
Compound: C[C@@H](Oc1cc(-n2cnc3ccc(CN4CCN(C)CC4)cc32)sc1C(N)=O)c1ccccc1C(F)(F)F [GSK461364]
Reported Value: 6.92
//
Compound: CC(=O)O[C@H]1C(=O)[C@@]2(C)[C@H]([C@H](OC(=O)c3ccccc3)[C@]3(O)C[C@H](OC(=O)[C@H](O)[C@@H](NC(=O)c4ccccc4)c4ccccc4)C(C)=C1C3(C)C)[C@]1(OC(C)=O)CO[C@@H]1C[C@@H]2O [paclitaxel]
Reported Value: 9.05
//
Compound: CC(=O)O[C@@]12CO[C@@H]1C[C@H](O)[C@@]1(C)C(=O)[C@H](O)C3=C(C)[C@@H](OC(=O)[C@H](O)[C@@H](NC(=O)OC(C)(C)C)c4ccccc4)C[C@@](O)([C@@H](OC(=O)c4ccccc4)[C@H]21)C3(C)C [docetaxel]
Reported Value: 9.85

Form field - read-out: pEC50; system: DMS273 cells; submitted item: CC[C@@H]1C(=O)N(C)c2cnc(Nc3ccc(C(=O)NC4CCN(C)CC4)cc3OC)nc2N1C1CCCC1 [BI2536]
8.77
